Assay Target: Glucose-dependent insulinotropic receptor (Mus musculus)
Sequence (Q7TQP3 whole entry): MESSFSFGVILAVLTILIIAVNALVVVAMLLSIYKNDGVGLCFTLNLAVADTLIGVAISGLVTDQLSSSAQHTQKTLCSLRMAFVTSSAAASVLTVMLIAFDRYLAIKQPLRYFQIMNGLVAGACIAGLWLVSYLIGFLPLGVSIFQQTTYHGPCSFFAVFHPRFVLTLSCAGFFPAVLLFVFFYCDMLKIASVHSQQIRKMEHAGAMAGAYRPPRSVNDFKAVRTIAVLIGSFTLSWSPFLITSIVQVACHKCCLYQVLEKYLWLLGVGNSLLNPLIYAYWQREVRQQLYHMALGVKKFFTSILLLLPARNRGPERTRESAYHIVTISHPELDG
Assay Comment: Agonist activity at mouse GPR119 expressed in HEK293 cells assessed as stimulation of cMAP level by cell-based cAMP assay
Measurement Type: pEC50
Remember, pEC50 is on a log scale: it is -log10 of the molar concentration.

Known results for compounds:
{"Compound": "CC(C)OC(=O)N1CCC(Oc2cc(Oc3ccc(S(C)(=O)=O)cc3F)ncn2)CC1", "pEC50": 6.39}
{"Compound": "Cc1ncccc1Oc1ncnc(O[C@H]2CC3CC[C@@H](C2)N3S(=O)(=O)c2ccc(Cl)s2)c1C (single isomer, unassigned)", "pEC50": 6.84}
{"Compound": "Cc1c(Oc2ccccc2Cl)ncnc1O[C@H]1CC2CC[C@@H](C1)N2S(=O)(=O)C1CC1 (single isomer, unassigned)", "pEC50": 7.09}

Moving on to the next compound.
Q) Read off the recorded pEC50 for Cc1c(Nc2ccc(C#N)cc2F)ncnc1O[C@H]1CC2CC[C@@H](C1)N2S(=O)(=O)C1CC1 (single isomer, unassigned)
A) 6.66

Hey, just so you know, these numbers are from ChEMBL document CHEMBL1777763.
